Below: a set of entries, each annotated with reported HPLC purity Day 0 (%).
assay: Stability investigation of the crystalline forms (HPLC purity, samples placed open and flat)
Format: physicochemical
test_context: heating at 60° C., Day 0
Dear colleague, please return just the value in %, with no unit written.

Examples with their reported HPLC purity Day 0 (%) follow.
compound	HPLC purity Day 0 (%)
COC(=O)[C@H](c1ccccc1Cl)N1CC[C@@H]2SC(=O)C=C2C1 [Example 5]	99.87
COC(=O)[C@H](c1ccccc1Cl)N1CC[C@@H]2SC(=O)C=C2C1 (racemic) [Comparative preparation example 3, reference compound]	97.73
COC(=O)[C@H](c1ccccc1Cl)N1CC[C@@H]2SC(=O)C=C2C1 [Example 6]	99.91

[Q] Bench note: what HPLC purity Day 0 (%) did COC(=O)[C@H](c1ccccc1Cl)N1CC[C@@H]2SC(=O)C=C2C1 [Example 1] show?
[A] 99.82

[Q] What about this compound? COC(=O)[C@H](c1ccccc1Cl)N1CC[C@@H]2SC(=O)C=C2C1 (racemic) [Comparative preparation example 1, reference compound]
[A] 96.89
